# credit: the supplement of paper PMC10307832

Test system: NCI-H2126
Experiment: relative viability (nuclei count vs DMSO), 5 days (fraction); higher = more cells survive
Conditions: first compound 2.53 µM
relative viability strictly under 0.6 means Met; at 0.6 or over means Not met.

// known answers, use as guide
molecule: Cc1cnc(-c2cnc(NCCNc3ccc(C#N)cn3)nc2-c2ccc(Cl)cc2Cl)[nH]1 + Nc1ncn([C@H]2C[C@H](O)[C@@H](CO)O2)c(=O)n1 [Decitabine] (partner 2 µM)
label: Met
--
molecule: Cc1cnc(-c2cnc(NCCNc3ccc(C#N)cn3)nc2-c2ccc(Cl)cc2Cl)[nH]1 + CC(=O)Nc1cccc(-n2c(=O)n(C3CC3)c(=O)c3c(Nc4ccc(I)cc4F)n(C)c(=O)c(C)c32)c1 [Trametinib] (partner 0.02 µM)
label: Met
--
molecule: Cc1cnc(-c2cnc(NCCNc3ccc(C#N)cn3)nc2-c2ccc(Cl)cc2Cl)[nH]1 + N=C(N)NC(=N)NCCc1ccccc1 [Phenformin] (partner 250 µM)
label: Met
--
molecule: O=c1[nH]c2ccccc2n1C1CCN(CCCC(c2ccc(F)cc2)c2ccc(F)cc2)CC1 [Pimozide] + Cc1nc(NC(=O)N2CCC[C@H]2C(N)=O)sc1-c1ccnc(C(C)(C)C(F)(F)F)c1 [Alpelisib] (partner 2 µM)
label: Not met

stdin: Is relative viability of Cc1cnc(-c2cnc(NCCNc3ccc(C#N)cn3)nc2-c2ccc(Cl)cc2Cl)[nH]1 + Cc1nc(NC(=O)N2CCC[C@H]2C(N)=O)sc1-c1ccnc(C(C)(C)C(F)(F)F)c1 [Alpelisib] (partner 2 µM) strictly below 0.6?
stdout: Not met

stdin: Is relative viability of Cc1cnc(-c2cnc(NCCNc3ccc(C#N)cn3)nc2-c2ccc(Cl)cc2Cl)[nH]1 + COc1cc2c(Oc3ccc(NC(=O)C4(C(=O)Nc5ccc(F)cc5)CC4)cc3F)ccnc2cc1OCCCN1CCOCC1 [Foretinib] (partner 0.25 µM) strictly below 0.6?
stdout: Not met

stdin: Is relative viability of Cc1cnc(-c2cnc(NCCNc3ccc(C#N)cn3)nc2-c2ccc(Cl)cc2Cl)[nH]1 + C[C@@H](Oc1cc(-c2cnn(C3CCNCC3)c2)cnc1N)c1c(Cl)ccc(F)c1Cl [Crizotinib] (partner 1 µM) strictly below 0.6?
stdout: Not met

stdin: Is relative viability of Cc1cnc(-c2cnc(NCCNc3ccc(C#N)cn3)nc2-c2ccc(Cl)cc2Cl)[nH]1 + CS(=O)(=O)CCNCc1ccc(-c2ccc3ncnc(Nc4ccc(OCc5cccc(F)c5)c(Cl)c4)c3c2)o1 [Lapatinib] (partner 2 µM) strictly below 0.6?
stdout: Not met

stdin: Is relative viability of Cc1cnc(-c2cnc(NCCNc3ccc(C#N)cn3)nc2-c2ccc(Cl)cc2Cl)[nH]1 + CC(=O)c1c(C)c2cnc(Nc3ccc(N4CCNCC4)cn3)nc2n(C2CCCC2)c1=O [Palbociclib] (partner 0.5 µM) strictly below 0.6?
stdout: Met

====

Tested on: NCI-H1651
Assay: relative viability (nuclei count vs DMSO), 5 days (fraction); higher = more cells survive
Conditions: first compound 0.05 µM
relative viability: recorded values

molecule: Nc1ccn([C@@H]2O[C@H](CO)[C@@H](O)[C@@H]2O)c(=O)n1 [Cytarabine] + COc1cccc2cc(-c3nc([C@H]4CC[C@H](C(=O)O)CC4)n4ncnc(N)c34)[nH]c12 [OSI-027] (partner 0.5 µM)
measurement target: NCI-H1651
observed measurement: 0.81

stdin: For the record COc1cc2nccc(Oc3ccc(NC(=O)Nc4cc(C)on4)c(Cl)c3)c2cc1OC [Tivozanib] + CC(C)C[C@H](NC(=O)[C@H](Cc1ccccc1)NC(=O)c1cnccn1)B(O)O [Bortezomib] (partner 0.002 µM) , what value of relative viability is listed for NCI-H1651?
stdout: 1.02

====

System: HCC-78
Assay: relative viability (nuclei count vs DMSO), 5 days (fraction); higher = more cells survive
Conditions: first compound 0.01581 µM
readout type: relative viability
Just the number.

compound: Nc1ccn([C@@H]2O[C@H](CO)[C@@H](O)[C@@H]2O)c(=O)n1 [Cytarabine] + Nc1nc2[nH]cc(CCc3ccc(C(=O)N[C@@H](CCC(=O)O)C(=O)O)cc3)c2c(=O)[nH]1 [Pemetrexed] (partner 0.2 µM)
relative viability: 0.918

Could you now consider this next compound?
stdin: Endpoint output: relative viability of COc1cc2nccc(Oc3ccc(NC(=O)Nc4cc(C)on4)c(Cl)c3)c2cc1OC [Tivozanib] + C[C@]1(O)C[C@@H](c2nc(-c3ccc4ccc(-c5ccccc5)nc4c3)c3c(N)nccn32)C1 [Linsitinib] (partner 1 µM) . Value?
stdout: 0.492

====

System: NCI-H1355
Assay: relative viability (nuclei count vs DMSO), 5 days (fraction); higher = more cells survive
Conditions: first compound 0.1581 µM
readout type: relative viability
Just the number.

compound: COc1cc2nccc(Oc3ccc(NC(=O)Nc4cc(C)on4)c(Cl)c3)c2cc1OC [Tivozanib] + COc1cc2c(Oc3ccc(NC(=O)C4(C(=O)Nc5ccc(F)cc5)CC4)cc3F)ccnc2cc1OCCCN1CCOCC1 [Foretinib] (partner 0.25 µM)
observed measurement: 0.929
--
compound: COc1cc2nccc(Oc3ccc(NC(=O)Nc4cc(C)on4)c(Cl)c3)c2cc1OC [Tivozanib] + Cc1cc(Nc2cc(N3CCN(C)CC3)nc(Sc3ccc(NC(=O)C4CC4)cc3)n2)n[nH]1 [Tozasertib] (partner 0.1 µM)
observed measurement: 0.614

Could you now consider this next compound?
stdin: Endpoint output: relative viability of Nc1ccn([C@@H]2O[C@H](CO)[C@@H](O)[C@@H]2O)c(=O)n1 [Cytarabine] + CS(=O)(=O)CCNCc1ccc(-c2ccc3ncnc(Nc4ccc(OCc5cccc(F)c5)c(Cl)c4)c3c2)o1 [Lapatinib] (partner 2 µM) . Value?
stdout: 0.66

====

Test system: NCI-H1666
Experiment: relative viability (nuclei count vs DMSO), 5 days (fraction); higher = more cells survive
Conditions: first compound 0.000632 µM
readout type: relative viability

Some entries whose results are on file:
compound: CC(=O)O[C@@]12CO[C@@H]1C[C@H](O)[C@@]1(C)C(=O)[C@H](O)C3=C(C)[C@@H](OC(=O)[C@H](O)[C@@H](NC(=O)OC(C)(C)C)c4ccccc4)C[C@@](O)([C@@H](OC(=O)c4ccccc4)[C@H]21)C3(C)C [Docetaxel] + CC(=O)Nc1cccc(-n2c(=O)n(C3CC3)c(=O)c3c(Nc4ccc(I)cc4F)n(C)c(=O)c(C)c32)c1 [Trametinib] (partner 0.02 µM)
readout type: relative viability
observed measurement: 0.695
//
compound: CC(=O)O[C@@]12CO[C@@H]1C[C@H](O)[C@@]1(C)C(=O)[C@H](O)C3=C(C)[C@@H](OC(=O)[C@H](O)[C@@H](NC(=O)OC(C)(C)C)c4ccccc4)C[C@@](O)([C@@H](OC(=O)c4ccccc4)[C@H]21)C3(C)C [Docetaxel] + O=C(CCCCCCC(=O)Nc1ccccc1)NO [Vorinostat] (partner 1 µM)
readout type: relative viability
observed measurement: 0.992

Could you now consider this next compound?
stdin: For the record CC(=O)O[C@@]12CO[C@@H]1C[C@H](O)[C@@]1(C)C(=O)[C@H](O)C3=C(C)[C@@H](OC(=O)[C@H](O)[C@@H](NC(=O)OC(C)(C)C)c4ccccc4)C[C@@](O)([C@@H](OC(=O)c4ccccc4)[C@H]21)C3(C)C [Docetaxel] + C[C@@H](Oc1cc(-c2cnn(C3CCNCC3)c2)cnc1N)c1c(Cl)ccc(F)c1Cl [Crizotinib] (partner 1 µM) , what value of relative viability is listed for NCI-H1666?
stdout: 0.508

====

Tested on: NCI-H2342
Test: relative viability (nuclei count vs DMSO), 5 days (fraction); higher = more cells survive
Details: first compound 0.005 µM
relative viability strictly under 0.5 means criterion met; at 0.5 or over means criterion not met.

// known answers, use as guide
compound: COc1cc2nccc(Oc3ccc(NC(=O)Nc4cc(C)on4)c(Cl)c3)c2cc1OC [Tivozanib] + Nc1nc2[nH]cc(CCc3ccc(C(=O)N[C@@H](CCC(=O)O)C(=O)O)cc3)c2c(=O)[nH]1 [Pemetrexed] (partner 0.2 µM)
label: criterion not met

compound: Nc1ccn([C@@H]2O[C@H](CO)[C@@H](O)[C@@H]2O)c(=O)n1 [Cytarabine] + Nc1ncn([C@H]2C[C@H](O)[C@@H](CO)O2)c(=O)n1 [Decitabine] (partner 2 µM)
label: criterion not met

Kindly review the next compound as well.
stdin: Is relative viability of COc1cc2nccc(Oc3ccc(NC(=O)Nc4cc(C)on4)c(Cl)c3)c2cc1OC [Tivozanib] + Cc1nc(Nc2ncc(C(=O)Nc3c(C)cccc3Cl)s2)cc(N2CCN(CCO)CC2)n1 [Dasatinib] (partner 0.075 µM) strictly below 0.5?
stdout: criterion met

====

Tested on: HCC-366
Test: relative viability (nuclei count vs DMSO), 5 days (fraction); higher = more cells survive
Conditions: first compound 0.1581 µM
readout type: relative viability
Just the number.

Some entries whose results are on file:
compound: Nc1ccn([C@@H]2O[C@H](CO)[C@@H](O)[C@@H]2O)c(=O)n1 [Cytarabine] + O=C(CCCCCCC(=O)Nc1ccccc1)NO [Vorinostat] (partner 1 µM)
measurement target: HCC-366
relative viability: 0.087

compound: COc1cc2nccc(Oc3ccc(NC(=O)Nc4cc(C)on4)c(Cl)c3)c2cc1OC [Tivozanib] + COc1cccc2cc(-c3nc([C@H]4CC[C@H](C(=O)O)CC4)n4ncnc(N)c34)[nH]c12 [OSI-027] (partner 0.5 µM)
measurement target: HCC-366
relative viability: 0.707

stdin: Endpoint output: relative viability of COc1cc2nccc(Oc3ccc(NC(=O)Nc4cc(C)on4)c(Cl)c3)c2cc1OC [Tivozanib] + CS(=O)(=O)CCNCc1ccc(-c2ccc3ncnc(Nc4ccc(OCc5cccc(F)c5)c(Cl)c4)c3c2)o1 [Lapatinib] (partner 2 µM) . Value?
stdout: 1.03

stdin: Endpoint output: relative viability of Nc1ccn([C@@H]2O[C@H](CO)[C@@H](O)[C@@H]2O)c(=O)n1 [Cytarabine] + Nc1ncn([C@H]2C[C@H](O)[C@@H](CO)O2)c(=O)n1 [Decitabine] (partner 2 µM) . Value?
stdout: 0.0925

stdin: Endpoint output: relative viability of Nc1ccn([C@@H]2O[C@H](CO)[C@@H](O)[C@@H]2O)c(=O)n1 [Cytarabine] + O=C(c1cc(Cc2n[nH]c(=O)c3ccccc23)ccc1F)N1CCN(C(=O)C2CC2)CC1 [Olaparib] (partner 8 µM) . Value?
stdout: 0.136

stdin: Endpoint output: relative viability of Nc1ccn([C@@H]2O[C@H](CO)[C@@H](O)[C@@H]2O)c(=O)n1 [Cytarabine] + Cc1cc(Nc2cc(N3CCN(C)CC3)nc(Sc3ccc(NC(=O)C4CC4)cc3)n2)n[nH]1 [Tozasertib] (partner 0.1 µM) . Value?
stdout: 0.0612
